These entries and their values trace back to patent US20090305995A1.

- ASSAY SUMMARY: high throughput solubility (HT-Solubility)
- Format: physicochemical
- TEST SETTINGS: pH 1, pH 1.0; read-out: HT-Solubility pH 1.0
EXPERIMENTAL READOUT: solubility (µg/mL)

COMPOUND: CCCCNC(=O)C[C@H](CCCCN)NC(=O)[C@@H](Cc1c[nH]c2ccccc12)NC(=O)C[C@H](Cc1ccccc1)NC(C)=O [Compound 52]
EXPERIMENTAL READOUT: solubility
RESULT: 121

COMPOUND: C[C@H]1OC(=O)C[C@H]1NC(=O)C[C@H](CCCCN)NC(=O)[C@@H](Cc1cn(C)c2ccccc12)NC(=O)C[C@H](Cc1ccccc1)NC(=O)C12CC3CC(CC(C3)C1)C2 [Compound 20]
EXPERIMENTAL READOUT: solubility
RESULT: 15.6

COMPOUND: CCCCCN(C)C(=O)C[C@H](CCCCN)NC(=O)[C@@H](Cc1c[nH]c2ccccc12)NC(=O)C[C@H](Cc1ccccc1)NC(C)=O [Compound 47]
EXPERIMENTAL READOUT: solubility
RESULT: 127

COMPOUND: CCCCN(C)C(=O)C[C@H](CCCCN)NC(=O)[C@@H](Cc1c[nH]c2ccccc12)NC(=O)C[C@H](Cc1ccccc1)NC(=O)CC [Compound 43]
EXPERIMENTAL READOUT: solubility
RESULT: 127

COMPOUND: NCCCC[C@@H](CC(=O)NC1CCCC1)NC(=O)[C@@H](Cc1c[nH]c2ccccc12)NC(=O)C[C@H](Cc1ccccc1)NC(=O)C12CC3CC(CC(C3)C1)C2 [Compound 34]
EXPERIMENTAL READOUT: solubility
RESULT: 147

COMPOUND: CCN(CC)C(=O)C[C@@H](NC(=O)C[C@H](CCCCN)NC(=O)[C@@H](Cc1c[nH]c2ccccc12)NC(=O)C[C@H](Cc1ccccc1)NC(C)=O)C(C)C [Compound 22]
EXPERIMENTAL READOUT: solubility
RESULT: 14.4

COMPOUND: CC(=O)N(C)[C@H](CC(=O)N[C@H](Cc1c[nH]c2ccccc12)C(=O)N[C@@H](CCCCN)CC(=O)N[C@@H]1CC(=O)O[C@@H]1C)Cc1ccccc1 [Compound 39]
EXPERIMENTAL READOUT: solubility
RESULT: 132

COMPOUND: CC(=O)N[C@H](CC(=O)N[C@H](Cc1c[nH]c2ccccc12)C(=O)N[C@@H](CCCCN)CC(=O)N[C@H](CC(N)=O)[C@@H](C)O)Cc1ccccc1 [Compound 2]
EXPERIMENTAL READOUT: solubility
RESULT: 13.3

COMPOUND: C[C@H]1OC(=O)C[C@H]1NC(=O)C[C@H](CCCCN)NC(=O)[C@@H](Cc1c[nH]c2ccccc12)NC(=O)C[C@H](Cc1ccccc1)NC(=O)C12CC3CC(CC(C3)C1)C2 [Compound 13]
EXPERIMENTAL READOUT: solubility
RESULT: 153

COMPOUND: CCCCCCN(C)C(=O)C[C@H](CCCCN)NC(=O)[C@@H](Cc1c[nH]c2ccccc12)N(Cc1ccccc1)C(=O)C[C@H](Cc1ccccc1)NC(=O)CC [Compound 68]
EXPERIMENTAL READOUT: solubility
RESULT: 75.1

COMPOUND: CN[C@H](CC(=O)N[C@H](Cc1c[nH]c2ccccc12)C(=O)N[C@@H](CCCCN)CC(=O)N[C@@H]1CC(=O)O[C@@H]1C)Cc1ccccc1 [Compound 38]
EXPERIMENTAL READOUT: solubility
RESULT: 124
